Overview of recorded inhibition for various molecules
- Target system: Voltage-dependent T-type calcium channel subunit alpha-1H (Homo sapiens) (UniProt O95180)
- Sequence (O95180 whole entry): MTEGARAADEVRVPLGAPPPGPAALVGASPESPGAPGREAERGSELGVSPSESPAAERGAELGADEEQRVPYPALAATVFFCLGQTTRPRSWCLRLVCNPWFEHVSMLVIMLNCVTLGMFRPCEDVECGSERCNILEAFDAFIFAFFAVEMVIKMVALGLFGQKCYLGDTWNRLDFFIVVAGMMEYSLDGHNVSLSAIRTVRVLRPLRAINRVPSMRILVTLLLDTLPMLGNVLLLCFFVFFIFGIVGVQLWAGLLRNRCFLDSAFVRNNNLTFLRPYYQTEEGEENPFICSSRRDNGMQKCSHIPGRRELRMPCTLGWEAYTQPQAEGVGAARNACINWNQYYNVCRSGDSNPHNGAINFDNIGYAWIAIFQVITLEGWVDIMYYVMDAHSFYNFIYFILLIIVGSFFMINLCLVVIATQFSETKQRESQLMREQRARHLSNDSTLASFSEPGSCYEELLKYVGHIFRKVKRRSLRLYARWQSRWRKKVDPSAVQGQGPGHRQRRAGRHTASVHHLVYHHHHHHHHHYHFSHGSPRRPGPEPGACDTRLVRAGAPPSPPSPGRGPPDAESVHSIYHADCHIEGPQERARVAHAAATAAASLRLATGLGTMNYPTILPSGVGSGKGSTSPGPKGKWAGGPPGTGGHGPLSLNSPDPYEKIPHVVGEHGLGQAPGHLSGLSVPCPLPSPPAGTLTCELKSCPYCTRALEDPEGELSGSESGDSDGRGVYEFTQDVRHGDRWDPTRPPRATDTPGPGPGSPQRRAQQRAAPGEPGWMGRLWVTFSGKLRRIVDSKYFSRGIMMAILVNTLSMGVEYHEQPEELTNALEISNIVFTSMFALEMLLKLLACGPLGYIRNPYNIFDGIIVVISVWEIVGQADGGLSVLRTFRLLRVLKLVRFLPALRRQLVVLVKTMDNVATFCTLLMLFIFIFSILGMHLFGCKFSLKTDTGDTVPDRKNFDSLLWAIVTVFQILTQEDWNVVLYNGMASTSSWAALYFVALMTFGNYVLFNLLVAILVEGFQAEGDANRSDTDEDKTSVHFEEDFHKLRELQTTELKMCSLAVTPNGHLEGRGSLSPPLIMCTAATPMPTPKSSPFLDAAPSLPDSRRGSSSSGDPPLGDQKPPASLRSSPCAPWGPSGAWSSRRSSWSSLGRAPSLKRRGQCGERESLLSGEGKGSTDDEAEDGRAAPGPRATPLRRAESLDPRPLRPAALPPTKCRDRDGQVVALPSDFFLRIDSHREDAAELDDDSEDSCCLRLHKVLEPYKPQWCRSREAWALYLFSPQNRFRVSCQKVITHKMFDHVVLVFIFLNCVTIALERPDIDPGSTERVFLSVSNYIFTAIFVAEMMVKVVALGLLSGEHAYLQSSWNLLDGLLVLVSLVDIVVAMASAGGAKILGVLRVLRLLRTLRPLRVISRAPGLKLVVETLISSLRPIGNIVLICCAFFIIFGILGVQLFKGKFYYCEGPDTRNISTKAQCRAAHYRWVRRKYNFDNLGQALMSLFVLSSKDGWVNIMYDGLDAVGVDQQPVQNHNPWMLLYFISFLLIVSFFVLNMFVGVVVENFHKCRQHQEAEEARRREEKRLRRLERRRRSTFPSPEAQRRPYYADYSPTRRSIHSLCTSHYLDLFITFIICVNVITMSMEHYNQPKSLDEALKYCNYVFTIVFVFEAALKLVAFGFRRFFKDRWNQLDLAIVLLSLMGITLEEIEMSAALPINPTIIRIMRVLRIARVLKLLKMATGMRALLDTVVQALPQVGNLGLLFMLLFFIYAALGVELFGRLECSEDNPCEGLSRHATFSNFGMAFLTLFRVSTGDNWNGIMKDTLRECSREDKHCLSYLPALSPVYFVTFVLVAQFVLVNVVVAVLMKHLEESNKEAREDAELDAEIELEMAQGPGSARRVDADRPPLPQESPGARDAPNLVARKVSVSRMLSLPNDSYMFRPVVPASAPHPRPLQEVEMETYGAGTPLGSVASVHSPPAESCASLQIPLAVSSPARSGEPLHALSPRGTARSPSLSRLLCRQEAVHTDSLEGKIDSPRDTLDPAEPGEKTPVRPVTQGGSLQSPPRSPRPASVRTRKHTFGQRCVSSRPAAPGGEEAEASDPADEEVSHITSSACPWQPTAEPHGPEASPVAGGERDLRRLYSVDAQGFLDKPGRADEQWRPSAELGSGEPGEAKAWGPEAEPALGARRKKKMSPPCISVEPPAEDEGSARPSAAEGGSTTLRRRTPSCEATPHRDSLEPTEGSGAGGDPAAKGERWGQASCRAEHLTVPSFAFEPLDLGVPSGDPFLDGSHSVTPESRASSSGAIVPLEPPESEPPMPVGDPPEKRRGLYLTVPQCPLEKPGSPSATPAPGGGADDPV
- Procedure details: Antagonist activity against T-type calcium channel subunit alpha-1H assessed as inactivation of channel current at 1 uM by cell based patch clamp assay
- Assay type: functional

Examples with their reported inhibition follow.
- Chemical string: "CC(C)OCCCN1CCC2(CCN(C(c3ccc(F)cc3)c3ccc(F)cc3)CC2)C1=O"
  Target system: "Voltage-dependent T-type calcium channel subunit alpha-1H (Homo sapiens) (UniProt O95180)"
  Result: "76%"
- Chemical string: "O=C(c1ccc(F)cc1)N1CCC2(CC1)CCN(Cc1ccc(Cl)cc1)C2=O"
  Target system: "Voltage-dependent T-type calcium channel subunit alpha-1H (Homo sapiens) (UniProt O95180)"
  Result: "< 20%"
- Chemical string: "O=C1CC2(CCN(C(c3ccc(F)cc3)c3ccc(F)cc3)CC2)CN1Cc1ccc(Cl)cc1"
  Target system: "Voltage-dependent T-type calcium channel subunit alpha-1H (Homo sapiens) (UniProt O95180)"
  Result: "68%"
- Chemical string: "Fc1ccc(C(c2ccc(F)cc2)N2CCC3(CCN(Cc4ccc(Cl)cc4)C3)CC2)cc1"
  Target system: "Voltage-dependent T-type calcium channel subunit alpha-1H (Homo sapiens) (UniProt O95180)"
  Result: "66%"
- Chemical string: "COCCCN1CCC2(CCN(C(c3ccc(F)cc3)c3ccc(F)cc3)CC2)C1=O"
  Target system: "Voltage-dependent T-type calcium channel subunit alpha-1H (Homo sapiens) (UniProt O95180)"
  Result: "44%"
- Chemical string: "COCCN1CCC2(CCN(C(c3ccc(F)cc3)c3ccc(F)cc3)CC2)C1=O"
  Target system: "Voltage-dependent T-type calcium channel subunit alpha-1H (Homo sapiens) (UniProt O95180)"
  Result: "28%"

Lookup result for O=C1N(CCCN2CCOCC2)CCC12CCN(C(c1ccc(F)cc1)c1ccc(F)cc1)CC2 ; measured inhibition: 35%

* * *

- Target system: Voltage-dependent L-type calcium channel subunit alpha-1C (Homo sapiens) (UniProt Q13936)
- Sequence (Q13936 whole entry, looked up): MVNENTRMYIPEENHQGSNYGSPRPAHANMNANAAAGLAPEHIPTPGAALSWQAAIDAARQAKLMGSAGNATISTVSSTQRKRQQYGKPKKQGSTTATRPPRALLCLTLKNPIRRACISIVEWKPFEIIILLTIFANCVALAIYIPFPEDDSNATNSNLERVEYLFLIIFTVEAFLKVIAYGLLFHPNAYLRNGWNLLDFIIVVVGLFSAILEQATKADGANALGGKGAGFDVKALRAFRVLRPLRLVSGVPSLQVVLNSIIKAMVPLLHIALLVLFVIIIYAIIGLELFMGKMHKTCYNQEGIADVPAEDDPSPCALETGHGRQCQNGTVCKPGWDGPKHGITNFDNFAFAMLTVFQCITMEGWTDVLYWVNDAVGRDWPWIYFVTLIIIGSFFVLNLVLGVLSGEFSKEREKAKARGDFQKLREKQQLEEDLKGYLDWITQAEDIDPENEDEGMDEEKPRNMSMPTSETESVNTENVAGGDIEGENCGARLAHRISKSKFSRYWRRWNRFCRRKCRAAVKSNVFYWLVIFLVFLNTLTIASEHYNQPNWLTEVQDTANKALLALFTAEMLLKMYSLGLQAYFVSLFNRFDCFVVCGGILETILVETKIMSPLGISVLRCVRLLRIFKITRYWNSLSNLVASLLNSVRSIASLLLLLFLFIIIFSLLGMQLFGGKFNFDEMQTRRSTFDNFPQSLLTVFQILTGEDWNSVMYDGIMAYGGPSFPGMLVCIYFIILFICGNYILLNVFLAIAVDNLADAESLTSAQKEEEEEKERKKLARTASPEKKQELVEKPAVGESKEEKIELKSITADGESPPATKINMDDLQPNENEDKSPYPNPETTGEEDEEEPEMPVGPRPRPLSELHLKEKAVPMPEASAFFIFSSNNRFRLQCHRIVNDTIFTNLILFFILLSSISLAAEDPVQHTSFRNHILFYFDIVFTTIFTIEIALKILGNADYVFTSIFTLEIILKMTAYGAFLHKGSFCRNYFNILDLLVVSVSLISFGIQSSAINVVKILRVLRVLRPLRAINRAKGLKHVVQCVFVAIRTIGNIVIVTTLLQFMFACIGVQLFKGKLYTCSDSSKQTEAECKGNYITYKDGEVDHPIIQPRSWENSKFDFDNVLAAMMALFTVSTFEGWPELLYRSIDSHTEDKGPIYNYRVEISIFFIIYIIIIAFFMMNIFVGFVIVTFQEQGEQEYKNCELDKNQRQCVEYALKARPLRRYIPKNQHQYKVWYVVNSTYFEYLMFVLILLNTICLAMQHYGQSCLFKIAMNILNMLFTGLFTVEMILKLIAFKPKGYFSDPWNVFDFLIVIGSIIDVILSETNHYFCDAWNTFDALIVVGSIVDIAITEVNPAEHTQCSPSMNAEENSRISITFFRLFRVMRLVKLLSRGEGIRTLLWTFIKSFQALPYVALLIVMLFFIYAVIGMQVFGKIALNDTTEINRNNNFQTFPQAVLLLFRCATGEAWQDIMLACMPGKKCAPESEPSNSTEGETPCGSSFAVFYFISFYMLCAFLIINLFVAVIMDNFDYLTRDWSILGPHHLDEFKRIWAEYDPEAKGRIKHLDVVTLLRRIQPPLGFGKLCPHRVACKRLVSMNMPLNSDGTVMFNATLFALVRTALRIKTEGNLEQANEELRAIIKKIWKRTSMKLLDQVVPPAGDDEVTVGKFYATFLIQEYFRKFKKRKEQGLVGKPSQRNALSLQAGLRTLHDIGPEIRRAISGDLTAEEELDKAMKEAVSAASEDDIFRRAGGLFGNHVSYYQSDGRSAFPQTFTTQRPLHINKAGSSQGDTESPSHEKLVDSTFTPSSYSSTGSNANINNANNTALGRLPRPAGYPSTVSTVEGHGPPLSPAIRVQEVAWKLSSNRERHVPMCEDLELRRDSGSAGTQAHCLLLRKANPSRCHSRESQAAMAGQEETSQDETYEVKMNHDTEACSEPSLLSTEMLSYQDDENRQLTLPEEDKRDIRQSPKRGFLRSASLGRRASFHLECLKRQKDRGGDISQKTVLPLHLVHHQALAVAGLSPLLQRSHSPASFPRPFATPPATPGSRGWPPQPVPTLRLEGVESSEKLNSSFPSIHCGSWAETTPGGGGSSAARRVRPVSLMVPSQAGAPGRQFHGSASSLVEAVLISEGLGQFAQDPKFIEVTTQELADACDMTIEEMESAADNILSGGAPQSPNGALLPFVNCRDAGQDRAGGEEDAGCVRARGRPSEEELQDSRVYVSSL
- Procedure details: Antagonist activity against L-type calcium channel subunit alpha-1C assessed as inactivation of channel current at 3 uM by cell based patch clamp assay
Observation type: inhibition (%)

- Chemical string: "CC(C)N1CCC2(CCN(C(c3ccc(F)cc3)c3ccc(F)cc3)CC2)C1=O"
  Units of measure: "%"
  inhibition: 52
- Chemical string: "O=C1N(Cc2ccc(Cl)cc2)CCC12CCN(S(=O)(=O)c1ccc(F)cc1)CC2"
  Units of measure: "%"
  inhibition: 54
- Chemical string: "CC(C)OCCCN1CCC2(CCN(C(c3ccc(F)cc3)c3ccc(F)cc3)CC2)C1=O"
  Units of measure: "%"
  inhibition: 56
- Chemical string: "O=C1N(Cc2ccc(Cl)cc2)CCC12CCN(Cc1ccc(F)cc1)CC2"
  Units of measure: "%"
  inhibition: 59

* * *

- Target system: Voltage-dependent T-type calcium channel subunit alpha-1H (Homo sapiens) (UniProt O95180)
- Procedure details: Antagonist activity against T-type calcium channel subunit alpha-1H assessed as inactivation of channel current at 0.03 uM by cell based patch clamp assay
- Format: functional
Observation type: inhibition (%)

- Chemical string: "COc1cccc(CN2CCC3(CCN(C(c4ccc(F)cc4)c4ccc(F)cc4)CC3)C2=O)c1"
  Target system: "Voltage-dependent T-type calcium channel subunit alpha-1H (Homo sapiens) (UniProt O95180)"
  inhibition (%): 52

P = O=C1N(Cc2ccc(Cl)cc2)CCC12CCN(C(c1ccc(F)cc1)c1ccc(F)cc1)CC2
Q = O=C1N(CCc2ccc(Cl)cc2)CCC12CCN(C(c1ccc(F)cc1)c1ccc(F)cc1)CC2
Select one: P or Q . Criterion: greater recorded inhibition. Response format: the label of the selected entry. P
